- protocol: reduction of polyQ htt aggregates in cells – imaging, exon1htt(103Q)mCFP cells, high-content imaging, primary screen (AID 483);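 note: compound exposure lasted 3 days before fixation; percent of the per-plate median nuclei count of sample wells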
- conditionDetails: exon1htt(103Q)mCFP cell line, aggregate imaging, at 2 µM; measured here: cell count, toxicity
quantity: nuclei count (%)
# output: bare number, implied unit %

Kindly note the recorded nuclei count for C=CCn1c(SCC(=O)Nc2ccc3c(c2)OCO3)nc2ccccc2c1=O , which is 96.8

Kindly note the recorded nuclei count for Cc1ccc(CN2C(=O)CCC2C(=O)NCCCN2CCCC(C)C2)cc1 (stereo unspecified) , which is 106

Kindly note the recorded nuclei count for O=C1CN(C(=O)CN2CCCC2)C(c2ccccc2)c2cc(Br)ccc2N1 (stereo unspecified) , which is 83.1

Kindly note the recorded nuclei count for CCCNC(=O)N1CCN(S(=O)(=O)c2ccc(C)c(C)c2)CC1 , which is 105

Kindly note the recorded nuclei count for COc1ccc(-c2nc(CCNC(=O)c3ccco3)cs2)cc1OC , which is 102

Kindly note the recorded nuclei count for COc1cccc(OCC(O)CN2CCN(CCO)CC2)c1 (stereo unspecified) , which is 105

Kindly note the recorded nuclei count for Cc1nnc(Nc2ccccn2)c2ccccc12 , which is 104

Kindly note the recorded nuclei count for O=C1c2ccccc2C(=O)N1CCN1CCCCC1 , which is 113

Kindly note the recorded nuclei count for Cn1c(=O)c2c(nc(SCCCC#N)n2Cc2c(F)cccc2Cl)n(C)c1=O , which is 82.3

Kindly note the recorded nuclei count for O=C1c2ccccc2NC(c2cccc(F)c2)N1Cc1ccco1 (stereo unspecified) , which is 106

Kindly note the recorded nuclei count for CCOC(=O)c1oc2cc(OCC(N)=O)ccc2c(=O)c1-c1ccc(OC)c(OC)c1 , which is 106
